- targetSystem: T1, SARS-COV-2 RBD (SARS-COV-2, UniProt P0DTC2 319-539)
- T1 construct: also called WT RBD
- procedureDetails: ELISA, RBD coated on plate
experimentalReadout: EC50 (ng/mL)
Quick note: give the figure in ng/mL, leave out the unit.

According to the records, this binder C1019 (antibody, V domains shown) VH: QVQLVESGGGVVQPGTPLRLSCAASGFTFSSYAMHWVRQAPGKGLEWVAMISYDGGNKYYADSVKGRFTISRDNSKNTLFLQMNSLRGEDTAVYYCARSFSIRIGHKDNWGQGTLVTVSS VL: NFMLTQPHSVSESPGKTVTISCTGSSGSIANNYVQWYQQRPGSAPTPVIYEDDQRPSGVPDRFSGSIDSSSNSASLSISGLKTEDEADYYCQSYDSTNFWVFGGGTKLTVL displays EC50 of 2.8

What the record says about C1047 (antibody, V domains shown) VH: EVQLVQSGAEVKKPGESLKISCKGSGYSFISYWIVWVRQMPGKGLEWIGIIYPGDSDTIYSPSFQGQVTLSADKSISTAYLQWSSLKASDTAIYYCAKMVTSGTSYYETRGYASSGPFDNWGQGTLVTVSS VL: DIQLTQSPSSLSASVGDRVTITCRASQGISSALAWYQQKPGKAPKLLIYDASSLESGVPSRFSGSGSGTDFTLTISSLQPEDFATYYCQQSDNFGPGTKVDI : EC50 is 2.46

EC50 measured on C910 (antibody, V domains shown) VH: QVQLVQSGAAVKKPGASVKVSCKASGYTFTSYDINWVRQAPGQGLEWMGWMNPNSGNTGFAQRFQGRATLSRDTSITTAYMELTTLRSEDTAVYYCARGRANYNSKFLLDNWGQGTLVTVSS VL: QSALTQPASVSGSPGQSITISCTGTSSDVGSYNLVSWYQQHPGTAPKLMIYEGSKRPSGVSDRFSGYKSGNTASLTISGLQADDEADYYCCSFAGSTTRYVFGTGTRVTVL = 2.47

Form: binder = C904 (antibody, V domains shown) VH: QVQLQQWGAGLLKPSETLSLTCAVNGGSLSLYYWSWIRQSPGKGLEWIGEINHFGGSDYKPSLKSRVSISVDTSTNQFSLKLSSVTAADTAVYYCARKPLLHSNISPGAFDIWGQGTMVTVSS VL: EIVLTQSPGTLSLSPGERATLSCRASQSVAGSYLAWYQQKPGQAPRLLIYGASSRATGVPDRISGSGSGTDFTLTISRLEPEDFAVYYCQQYTNTPRTFGGGTKVEI ; EC50 = 3.31

Reported EC50 of C943 (antibody, V domains shown) VH: QVQLVESGGGVVQPGRSLRLSCAASGFPFSSFGMHWVRQAPGRGLEWVALILYDGDNKYYADSVKGRFTISRDNSKNTLYLQMNSLRAEDTAVYYCAKDIGGGSSPPFFDYWGQGTLVTVSS VL: SYELTQAPSVSLAPGKTARITCGENNIGSKSVHWYQQKPGQAPVLVIYYDSDRPSGIPERFSGSNSGNTATLTISRVEAGDEADYYCQVWDSSSDHVMFGGGTKLTVL : 2.59
